Test system: Staphylococcus aureus
Experiment: Antibacterial activity against Staphylococcus aureus measured at MIC after 18 hrs by halo zone test
Assay type: functional
Listed compounds paired with reported inhibition zone (IZ)
Expressed in mm, but write only the number.

Cc1cccc2cc(/C=N/NC(=S)NC3CCCCCCC3)c(Cl)nc12; 15.78
Cc1cccc2cc(/C=N/NC(=S)NC3CCCCC3)c(Cl)nc12; 12.75
O=[N+]([O-])c1ccc(NC(=S)N/N=C/c2cc3ccccc3nc2Cl)cc1; 13.46
Cc1ccccc1NC(=S)N/N=C/c1cc2cccc(C)c2nc1Cl; 14.8

// next item, inhibition zone (IZ) requested
Given the compound Cc1cccc2cc(/C=N/NC(=S)Nc3ccc([N+](=O)[O-])cc3)c(Cl)nc12 and test system Staphylococcus aureus, the measured inhibition zone (IZ) is 17.31
